# Tested on: CYP3A
# ASSAY_METHOD_TEXT: Example 2 phase 1 drug-drug interaction study, rivoceranib 700 mg QD + 5+1 cocktail: midazolam probe
# CONDITION_DESCRIPTION: human, in vivo, po, 2 mg, AUC(0-t), Geometric LSM, 5 + 1 cocktail alone, healthy volunteers, single oral 5+1 cocktail dose day 1, fasted
OUTCOME_MEASURE: AUC(0-t)
// return the numeric value with its unit appended

Task: # input molecule: Cc1ncc2n1-c1ccc(Cl)cc1C(c1ccccc1F)=NC2 [midazolam] ; wanted: its AUC(0-t)
Output: 28.1 ng·h/mL

---

# STUDY_SYSTEM: CYP1A2 (Homo sapiens)
# Sequence (P05177 whole entry): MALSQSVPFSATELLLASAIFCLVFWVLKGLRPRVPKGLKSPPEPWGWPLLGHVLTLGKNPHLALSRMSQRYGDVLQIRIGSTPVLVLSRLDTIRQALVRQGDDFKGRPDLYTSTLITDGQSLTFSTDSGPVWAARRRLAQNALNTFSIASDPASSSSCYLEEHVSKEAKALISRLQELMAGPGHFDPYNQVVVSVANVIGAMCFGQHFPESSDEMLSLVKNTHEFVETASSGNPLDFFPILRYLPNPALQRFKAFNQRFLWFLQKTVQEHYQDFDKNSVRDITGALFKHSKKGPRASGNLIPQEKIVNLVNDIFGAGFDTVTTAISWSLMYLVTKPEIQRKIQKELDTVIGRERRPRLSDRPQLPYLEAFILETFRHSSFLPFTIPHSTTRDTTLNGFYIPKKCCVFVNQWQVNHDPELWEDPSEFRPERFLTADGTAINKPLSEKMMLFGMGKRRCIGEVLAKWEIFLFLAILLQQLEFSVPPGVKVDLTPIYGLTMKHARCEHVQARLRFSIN
# ASSAY_METHOD_TEXT: clinical
# CONDITION_DESCRIPTION: human, in vivo, po, AUC(0-∞), Mean (CV %), 5 + 1 cocktail alone
OUTCOME_MEASURE: AUC(0-inf)
Answer by giving the amount and then stating its unit.

Task: What value of AUC(0-inf) has been recorded for this entry: Cn1c(=O)[nH]c2ncn(C)c2c1=O
Output: 28700 ng·h/mL
